Ratio IC50: recorded values
System: HCT-116
assayDetails: Resistance index, ratio IC50 for HCT116 cells to IC50 for p53 deleted human HCT116 cells
Format: functional
Number only, please.

Answered examples (5):
CNCCNc1c2c(c(NCCNC)c3sccc13)C(=O)c1ccccc1C2=O :: 0.6
CN(C)CCNc1c2c(c(NCCN(C)C)c3sccc13)C(=O)c1ccccc1C2=O :: 0.6
CNC(=O)c1cc2c(NCCN(C)C)c3c(c(NCCN(C)C)c2s1)C(=O)c1ccccc1C3=O :: 4.2
CNCCNc1c2c(c(NCCNC)c3c(C)csc13)C(=O)c1ccccc1C2=O :: 2.7
CNCCNc1c2c(c(NCCNC)c3[nH]ccc13)C(=O)c1ccccc1C2=O :: 1

Let us examine a further case.
Form field: Ratio IC50 recorded for "Cc1csc2c(NCCN(C)C)c3c(c(NCCN(C)C)c12)C(=O)c1ccccc1C3=O" with HCT-116 (enter value) 8.4
